- PROCEDURE_TEXT: qHTS assay to identify small molecule agonists of the constitutive androstane receptor (CAR) signaling pathway - cell viability counter screen (AID 1224836); note: nearly all actives have a fitted effect of over 45% in size
- STUDY_CONDITIONS: HepG2-CYP2B6-hCAR viability, CellTiter-Fluor, 23 h, PK11195 added to every well; series mostly up to 92.4 µM
Records with an inconclusive call do not appear. Active and inactive are the calls of the source. Calls come from the whole dose curve; as a rule, active = well fitted cell-killing curve with a large enough effect in the repeat runs; inconclusive = weak or mixed curves, or effect the other way; inactive = flat fitted curve, though single readings scatter.
Outcome field: choose from active, inactive

COMPOUND	QUALITATIVE_LABEL
CC(C)N(C(=O)COc1nnc(C(F)(F)F)s1)c1ccc(F)cc1	inactive
O=C1NCN(c2ccccc2)C12CCN(CCCOc1ccc(F)cc1)CC2	active
COP(=S)(Oc1cc(Cl)c(Br)cc1Cl)c1ccccc1 (stereo not drawn)	inactive
Nc1nc(N)nc(N)n1	inactive

Incoming: Please indicate how the test categorized Clc1cc(C(Cl)(Cl)Cl)cnc1Cl .
Outgoing: active

Incoming: // param item: C=C(C#N)CCC#N ; yields the recorded call
Outgoing: inactive

====

- PROCEDURE_TEXT: qHTS assay for identifying genotoxic compounds that show differential cytotoxicity against isogenic chicken DT40 cell lines with known DNA damage response pathways - Rad54/Ku70 mutant cell line (AID 743015); note: nearly all actives have a fitted effect of over 60% in size
- STUDY_CONDITIONS: DT40 Rad54/Ku70 mutant viability, CellTiter-Glo, 40 h; series mostly up to 66.8 µM
Results filed as inconclusive are left out. The source made the active and inactive calls. Calls come from the whole dose curve; as a rule, active = well fitted cell-killing curve with a large enough effect in the repeat runs; inconclusive = weak or mixed curves; inactive = no such curve, though single readings can be large or run the other way.
Assign a class; possible classes are active, inactive

Consider the worked cases shown below.
COMPOUND	QUALITATIVE_LABEL
Clc1cc(Cl)c(Cl)c(Cl)c1	inactive
O=C(OC1CCCCC1)c1ccccc1C(=O)OC1CCCCC1	active
C=CC(=O)NCNC(=O)C=C	active

Incoming: Please state the recorded outcome for this compound: c1ccoc1
Outgoing: inactive

Incoming: Short answer needed: outcome of this test for COP(=S)(OC)Oc1ccc([N+](=O)[O-])cc1Cl ?
Outgoing: inactive

Incoming: // return assay outcome for Clc1ccc(C(OCCN2CCCCC2)c2ccccc2)cc1 (stereo unspecified)
Outgoing: active

Incoming: # outcome recorded in this test, key = CCCC(=O)Cl
Outgoing: inactive

Incoming: Outcome logged for COC(C)(C)CCC[C@H](C)C/C=C/C(C)=C/C(=O)OC(C)C in this assay:
Outgoing: active

Incoming: Tell me the recorded outcome of this test for OCCCBr .
Outgoing: inactive

Incoming: In this assay, the call recorded for CNC(C)Cc1ccccc1OC (stereo unspecified) was what?
Outgoing: inactive

Incoming: Identify the outcome logged in this assay for the compound shown: N#C/C(N)=C(/N)C#N
Outgoing: inactive

====

- PROCEDURE_TEXT: Human pregnane X receptor (PXR) small molecule agonists, qHTS cell viability counter screen (AID 1346977); note: nearly all actives have a fitted effect of over 50% in size
- STUDY_CONDITIONS: PXR-Luc HepG2 viability, CellTiter-Fluor, 24 h; series mostly up to 92.4 µM
Results filed as inconclusive are left out. Activity calls are given as the source filed them. Calls follow the shape of the dose curve; as a rule, active = well fitted cell-killing curve with a large enough effect in the repeat runs; inconclusive = weak or mixed curves, or effect the other way; inactive = flat fitted curve, though single readings scatter.
Entry note: the call must match one of yes = active, no = inactive

# count of solved cases: 3
MOLECULE	QUALITATIVE_LABEL
COCC(C)N(C(=O)CCl)c1c(C)csc1C (stereo not drawn)	no
C[C@@H]1CC[C@H]2[C@@H](C)C(=O)O[C@@H]3O[C@@]4(C)CC[C@@H]1[C@]32OO4	no
CCOP(=O)(OCC)Oc1ccc([N+](=O)[O-])cc1	no

Incoming: Hi team, can someone confirm the assay call for O=C1NCN(c2ccccc2)C12CCN(CCCOc1ccc(F)cc1)CC2 ?
Outgoing: yes

Incoming: Check the results log: what was the call for CCOP(=O)(OCC)SCCSCC ?
Outgoing: no

Incoming: What outcome does the record of this test show for NCCCNCCCN ?
Outgoing: no

Incoming: Tell me the assay call for O=C1C(Cl)C(CCl)CN1c1cccc(C(F)(F)F)c1 (stereo not drawn) please.
Outgoing: no

====

- PROCEDURE_TEXT: qHTS assay to identify small molecule agonists of the peroxisome proliferator-activated receptor delta (PPARd) signaling pathway - cell viability counter screen (AID 743211); note: nearly all actives have a fitted effect of over 55% in size
- STUDY_CONDITIONS: PPARd-bla HEK293H viability, CellTiter-Glo luminescence, 17 h; series mostly up to 62.6 µM
Results filed as inconclusive are left out. The source made the active and inactive calls. Calls come from the whole dose curve; as a rule, active = well fitted cell-killing curve with a large enough effect in the repeat runs; inconclusive = weak or mixed curves; inactive = no such curve, though single readings can be large or run the other way.
Log the outcome using a class from active, inactive

Consider the following illustrative entries.
COMPOUND	QUALITATIVE_LABEL
OC(c1ccc(Cl)cc1)(c1ccc(Cl)cc1)c1cccnc1	active
C#CCOC(C(=O)OCCN(C)C)(c1ccccc1)c1ccccc1	inactive
Cc1cc(=O)[nH]o1	inactive
CCOP(=O)(OCC)O/C(=C/Cl)c1ccc(Cl)cc1Cl	inactive
C=CC[C@]1(O)CC[C@H]2[C@@H]3CCC4=CC(=O)CCC4=C3C=C[C@@]21C	inactive
CN1C[C@H](CNC(=O)OCc2ccccc2)C[C@@H]2c3cccc4c3c(cn4C)C[C@H]21	active

Incoming: Hi, do you know how C=CC(C)=O came out in this test?
Outgoing: inactive

Incoming: Hi, sorry to bother you, what did the test record for O=NN1CCNCC1 ?
Outgoing: inactive

Incoming: Would you mind telling me which call this test gave Cn1cc[n+](C)c1 (tested in a mixture with another compound) ?
Outgoing: inactive

Incoming: Recorded call for O=S(=O)(Cl)c1ccccc1 ?
Outgoing: inactive

Incoming: Just curious, what result did ClC=C(Cl)Cl get here?
Outgoing: inactive

Incoming: Could you check what this test reported for CCCCCCCCOC(=O)c1ccc(C(=O)OCCCCCCCC)c(C(=O)OCCCCCCCC)c1 ?
Outgoing: inactive

Incoming: // outcome(item) with item = O=C(O)CC(Cl)C(=O)O (stereo not given)
Outgoing: inactive

Incoming: Each compound tested received a call. Report the one for N#Cc1ccc(Cl)cc1 .
Outgoing: inactive

Incoming: Can you look up the reported call for CNC(C)Cc1ccccc1OC (stereo not given) for me?
Outgoing: inactive

Incoming: Can you look up the reported call for C=CC(=O)OC for me?
Outgoing: inactive

====

- TGT: Estrogen receptor (Homo sapiens)
- PROCEDURE_TEXT: qHTS assay to identify small molecule antagonists of the estrogen receptor alpha (ER-alpha) signaling pathway using the BG1 cell line in the presence of 0.1 nM 17-beta-estradiol (AID 1259244); note: nearly all actives have a fitted effect of over 50% in size
- STUDY_CONDITIONS: VM7Luc4E2 (BG1) ERE-luciferase, antagonist mode, 0.1 nM E2, 22 h; series mostly up to 92.4 µM
- Excerpt: National Center for Advancing Translational Sciences [NCATS] NIH Chemical Genomics Center [NCGC] U.S. Environmental Protection Agency [EPA] National Institutes of Environmental Health Sciences [NIEHS] National Toxicology Program [NTP] U.S. Food and Drug Administration [FDA] Estrogen receptor (ER), a member of the nuclear hormone receptor plays an important role in development, metabolic homeostasis and reproduction. […]
Results filed as inconclusive are left out. Activity calls are given as the source filed them. The call rests on the fitted dose curve; in most records, active means well fitted inhibition curve with a large enough effect in the repeat runs; inconclusive means weak or mixed curves; inactive means no such curve, though single readings can be large or run the other way.
EXPERIMENTAL_READOUT: outcome

TEST_SMILES	VAL
NC(=O)CI	inactive
Nc1ccc(N=Nc2ccc(-c3ccc(N=Nc4c(S(=O)(=O)O)cc5cc(S(=O)(=O)O)c(N=Nc6ccccc6)c(O)c5c4N)cc3)cc2)c(N)c1	inactive
BrCCCCBr	inactive

====

- PROCEDURE_TEXT: qHTS assay to identify small molecule agonists of the retinoic acid receptor (RAR) signaling pathway (AID 1159553)
- STUDY_CONDITIONS: C3RL4 RARE luciferase reporter, agonist, 6 h; series mostly up to 73.3 µM
Results filed as inconclusive are left out. Calls of active or inactive are those of the source. The call rests on the fitted dose curve; in most records, active means well fitted activation curve with a large enough effect in the repeat runs; inconclusive means weak or mixed curves, or effect the other way; inactive means no such curve, though single readings can be large or run the other way.
Entry note: the call must match one of active, inactive

COMPOUND	QUALITATIVE_LABEL
CCBr	inactive
Cc1ccccc1CCl	inactive
O=[N+]([O-])c1ccc(F)c([N+](=O)[O-])c1	inactive

Incoming: Record lookup: outcome of this test for [O-][Cl+]O ?
Outgoing: inactive

Incoming: Short answer needed: outcome of this test for BrCC(Br)C1CCC(Br)C(Br)C1 (stereo unspecified) ?
Outgoing: inactive

Incoming: Name the outcome recorded for C[C@]12CC[C@H]3[C@@H](CCC4=CC(=O)CC[C@@H]43)[C@@H]1CC[C@@H]2OC(=O)CCC1CCCCC1 in the assay.
Outgoing: inactive

Incoming: Test call for this compound, please: Clc1cc(Cl)c(Cl)c(Cl)c1
Outgoing: inactive

Incoming: What classification did OCCCBr end up with in this test?
Outgoing: inactive

Incoming: What outcome does the record of this test show for NNC(=O)c1cccnc1 ?
Outgoing: active

Incoming: What was the test verdict on C=CC(=O)OC ?
Outgoing: inactive

Incoming: Field: outcome | Entry: COC(=O)C(Cl)C(=O)OC
Outgoing: inactive

====

- TGT: Nuclear receptor subfamily 1 group I member 3 (Homo sapiens)
- PROCEDURE_TEXT: qHTS assay to identify small molecule agonists of the constitutive androstane receptor (CAR) signaling pathway (AID 1224839); note: nearly all actives have a fitted effect of over 15% in size;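 for activation: HepG2 cells stably carrying human CAR and a CYP2B6 luciferase reporter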
- STUDY_CONDITIONS: HepG2 hCAR CYP2B6-luciferase, agonist mode, 24 h; series mostly up to 92.4 µM
Inconclusive results are not listed. The source made the active and inactive calls. Calls come from the whole dose curve; as a rule, active = well fitted activation curve with a large enough effect in the repeat runs; inconclusive = weak or mixed curves; inactive = no such curve, though single readings can be large or run the other way.
Give one outcome, nothing more. List: yes (1) for active, no (0) for inactive

Worked cases, answers included:
COMPOUND	TGT	QUALITATIVE_LABEL
c1cc2ccc3cccc4ccc(c1)c2c34	Nuclear receptor subfamily 1 group I member 3 (Homo sapiens)	yes (1)
Nc1ccc([N+](=O)[O-])cc1[N+](=O)[O-]	Nuclear receptor subfamily 1 group I member 3 (Homo sapiens)	no (0)
CCCCN(N=O)C(=N)N[N+](=O)[O-]	Nuclear receptor subfamily 1 group I member 3 (Homo sapiens)	no (0)
CCOP(O)OCC	Nuclear receptor subfamily 1 group I member 3 (Homo sapiens)	no (0)
O=C(CBr)Nc1ccc(Cl)cc1C(=O)c1ccccc1F	Nuclear receptor subfamily 1 group I member 3 (Homo sapiens)	yes (1)

Incoming: What did this assay record as the result for CCBr ?
Outgoing: no (0)

Incoming: Short answer needed: outcome of this test for CC(=O)CCC(C)=O ?
Outgoing: no (0)

Incoming: Hi team, can someone confirm the assay call for [CH3][Sn]([CH3])([Cl])[Cl] ?
Outgoing: no (0)

Incoming: Which outcome did this test record for the compound CS/C(C)=N/OC(=O)N(C)SN(C)C(=O)O/N=C(\C)SC ?
Outgoing: no (0)

Incoming: What did the test return for CC1(C)CCC(Cc2ccc(Cl)cc2)C1(O)Cn1cncn1 (stereo unspecified) ?
Outgoing: no (0)
